Attribution: ChEMBL document CHEMBL1697723

Tested on: Hepatotoxicity
Test: Human drug-induced liver injury (DILI) modelling dataset from Ekins et al
Parameter measured: Hepatotoxicity

// solved cases for Hepatotoxicity follow
{"columns": ["Substance", "Experimental system", "Hepatotoxicity"],
 "data": [
  ["AURANOFIN", "Hepatotoxicity", "DILI positive (test set)"],
  ["AUROTHIOLAMATE", "Hepatotoxicity", "DILI positive (test set)"],
  ["LACTOSE, ANHYDROUS", "Hepatotoxicity", "DILI negative (test set)"],
  ["CARBOPLATIN", "Hepatotoxicity", "DILI positive (test set)"],
  ["CISPLATIN", "Hepatotoxicity", "DILI positive (test set)"],
  ["BISMUTH SUBSALICYLATE", "Hepatotoxicity", "DILI negative (test set)"]
]}

Would you kindly share the measured Hepatotoxicity for `AUROTHIOGLUCOSE` ? DILI positive (test set)

###

System: Hepatotoxicity
Experiment: Human drug-induced liver injury (DILI) modelling dataset from Ekins et al
Parameter measured: Hepatotoxicity

Illustrative cases are given below, each with its answer.
{"columns": ["Compound", "Experimental system", "Hepatotoxicity"],
 "data": [
  ["CCOC(=O)C1(c2ccccc2)CCN(CCc2ccc(N)cc2)CC1.Cl [ANILERIDINE HYDROCHLORIDE]", "Hepatotoxicity", "DILI negative (test set)"],
  ["C[C@@H]1[C@H](O)[C@@H](C)/C=C/C=C/C=C/C=C/C=C/C=C/C=C/[C@H](O[C@@H]2O[C@H](C)[C@@H](O)[C@H](N)[C@@H]2O)C[C@@H]2O[C@](O)(C[C@@H](O)C[C@@H](O)[C@H](O)CC[C@@H](O)C[C@@H](O)CC(=O)O[C@H]1C)C[C@H](O)[C@H]2C(=O)O [AMPHOTERICIN B]", "Hepatotoxicity", "DILI negative (test set)"],
  ["O=C(O)c1cc(-c2ccccc2)nc2ccccc12 [CINCHOPHEN]", "Hepatotoxicity", "DILI positive (test set)"],
  ["COc1ccc2c(C(=S)N(C)CC(=O)O)cccc2c1C(F)(F)F [TOLRESTAT]", "Hepatotoxicity", "DILI positive (test set)"],
  ["CN[C@@H]1[C@H](O)[C@H](NC)[C@H]2O[C@@]3(O)C(=O)C[C@@H](C)O[C@H]3O[C@@H]2[C@H]1O.Cl", "Hepatotoxicity", "DILI positive (test set)"]
]}

Item under review: CN1C(C(=O)Nc2nccs2)=C(O)c2ccccc2S1(=O)=O [SUDOXICAM] . Reported Hepatotoxicity? DILI positive (test set)

Item under review: CCCC[C@@H](CC)COC(=O)c1ccccc1C(=O)OC[C@@H](CC)CCCC [BIS(2-ETHYLHEXYL)PHTHALATE] . Reported Hepatotoxicity? DILI positive (test set)

Quick one: Hepatotoxicity for C[C@H](C(=O)O)c1ccc2oc(-c3ccc(F)cc3)nc2c1 [FLUNOXAPROFEN] ? DILI negative (test set)

###

Test system: Hepatotoxicity
Experiment: Human drug-induced liver injury (DILI) modelling dataset from Ekins et al
Starred links: 1 amine or outer side, 2 acyl side, 3 side chain; linkers in the order of their positions; H or OH if unused. Positions of bridges follow the written chain, without caps; N, C: chain ends. Non-standard residues stand in square brackets, D forms with d. Residues, ends and D or L forms follow the SMILES beside them. Chains are numbered I, II in the order given. Actinocin(9to1) = Cc1c2oc3c(C)ccc(C(=O)[*:1])c3nc-2c(C(=O)[*:2])c(N)c1=O; NMeV = CN[C@H](C(=O)O)C(C)C; Sar = CNCC(=O)O
Parameter measured: Hepatotoxicity

{"columns": ["Molecule", "Parameter measured", "Reading"],
 "data": [
  ["CCCCC(=O)N(Cc1ccc(-c2ccccc2-c2nnn[nH]2)cc1)[C@H](C(=O)O)C(C)C", "Hepatotoxicity", "DILI negative (test set)"],
  ["CC(C)(C)NC[C@H](O)COc1ccccc1C1CCCC1.CC(C)(C)NC[C@H](O)COc1ccccc1C1CCCC1.O=S(=O)(O)O [PENBUTOLOL SULFATE]", "Hepatotoxicity", "DILI positive (test set)"],
  ["C=C[C@H]1CN2CC[C@H]1C[C@H]2[C@H](O)c1ccnc2ccc(OC)cc12.C=C[C@H]1CN2CC[C@H]1C[C@H]2[C@H](O)c1ccnc2ccc(OC)cc12.O.O.O=S(=O)(O)O [QUININE SULFATE]", "Hepatotoxicity", "DILI positive (test set)"],
  ["Cc1c2oc3c(C)ccc(C(=O)N[C@@H]4C(=O)N[C@H](C(C)C)C(=O)N5CCC[C@H]5C(=O)N(C)CC(=O)N(C)[C@@H](C(C)C)C(=O)O[C@@H]4C)c3nc-2c(C(=O)N[C@@H]2C(=O)N[C@H](C(C)C)C(=O)N3CCC[C@H]3C(=O)N(C)CC(=O)N(C)[C@@H](C(C)C)C(=O)O[C@@H]2C)c(N)c1=O [DACTINOMYCIN] (I: T[dV]P[Sar][NMeV] / II: T[dV]P[Sar][NMeV]; ester I:1-I:C, II:1-II:C; linker I:N-II:N via Actinocin(9to1))", "Hepatotoxicity", "DILI positive (test set)"],
  ["O=C(O)COc1ccc(C(=O)c2cccs2)c(Cl)c1Cl", "Hepatotoxicity", "DILI positive (test set)"],
  ["CC(=O)CC(c1ccc([N+](=O)[O-])cc1)c1c(O)c2ccccc2oc1=O (centres undefined) [ACENOCOUMAROL]", "Hepatotoxicity", "DILI positive (test set)"],
  ["COc1cccc2c1C(=O)c1c(O)c3c(c(O)c1C2=O)C[C@@](O)(C(=O)CO)C[C@@H]3O[C@H]1C[C@H](N)[C@H](O)[C@H](C)O1.Cl [DOXORUBICIN HYDROCHLORIDE]", "Hepatotoxicity", "DILI positive (test set)"],
  ["CN(C)CCN(Cc1ccccc1)c1ccccn1.Cl [TRIPELENNAMINE HYDROCHLORIDE]", "Hepatotoxicity", "DILI positive (test set)"]
]}

Notebook entry, Hepatotoxicity assay: Hepatotoxicity of CN(N=O)C(=O)N[C@@H](C=O)[C@@H](O)[C@H](O)[C@H](O)CO [STREPTOZOCIN] = ? DILI negative (test set)

###

System: Hepatotoxicity
Assay: Human drug-induced liver injury (DILI) modelling dataset from Ekins et al
Starred links: 1 amine or outer side, 2 acyl side, 3 side chain; linkers in the order of their positions; H or OH if unused. Positions of bridges follow the written chain, without caps; N, C: chain ends. Non-standard residues stand in square brackets, D forms with d. Residues, ends and D or L forms follow the SMILES beside them. Adda = CO[C@@H](Cc1ccccc1)[C@@H](C)/C=C(C)/C=C/[C@H](N[*:1])[C@H](C)C(=O)[*:2]; dAsp(3S-Me) = C[C@H](C(=O)[*:3])[C@@H](N[*:1])C(=O)[*:2]; d(γGlu) = O=C(O)[C@@H](CCC(=O)[*:2])N[*:1]; NMeDha = C=C(NC)C(=O)O
Parameter measured: Hepatotoxicity

{"columns": ["Molecule", "Hepatotoxicity"],
 "data": [
  ["NC1=NC(=O)C(c2ccccc2)O1 (centres undefined)", "DILI positive (test set)"],
  ["NC[C@H]1O[C@H](O[C@H]2[C@H](O)[C@@H](O[C@H]3O[C@H](CO)[C@@H](O)[C@H](N)[C@H]3O)[C@H](N)C[C@@H]2N)[C@H](N)C[C@@H]1O", "DILI positive (test set)"],
  ["COCC(=O)O", "DILI positive (test set)"],
  ["CN1C[C@H](C(=O)N[C@]2(C)O[C@@]3(O)[C@@H]4CCCN4C(=O)[C@H](Cc4ccccc4)N3C2=O)C=C2c3cccc4[nH]cc(c34)C[C@H]21.CN1C[C@H](C(=O)N[C@]2(C)O[C@@]3(O)[C@@H]4CCCN4C(=O)[C@H](Cc4ccccc4)N3C2=O)C=C2c3cccc4[nH]cc(c34)C[C@H]21.O=C(O)C(O)C(O)C(=O)O [ERGOTAMINE TARTRATE]", "DILI negative (test set)"],
  ["CC1(C)S[C@@H]2[C@H](NC(=O)[C@H](NC(=O)N3CCNC3=O)c3ccccc3)C(=O)N2[C@H]1C(=O)[O-].[Na+] [AZLOCILLIN SODIUM]", "DILI negative (test set)"]
]}

Return reported Hepatotoxicity; argument: `Cc1ccc(Nc2c(F)cccc2Cl)c(CC(=O)O)c1` DILI positive (test set)

Which Hepatotoxicity value is on record for `Nc1c(CC(=O)O)cccc1C(=O)c1ccc(Br)cc1` ? DILI positive (test set)

Entry under review: `CCCN(CCC)C(=O)Cc1c(-c2ccc(Cl)cc2)nc2ccc(Cl)cn12` . Reported Hepatotoxicity? DILI positive (test set)

Any idea what Hepatotoxicity was measured for C=C1C(=O)N[C@H](C)C(=O)N[C@@H](CC(C)C)C(=O)N[C@@H](C(=O)O)[C@H](C)C(=O)N[C@@H](CCCNC(=N)N)C(=O)N[C@@H](/C=C/C(C)=C/[C@H](C)[C@H](Cc2ccccc2)OC)[C@H](C)C(=O)N[C@@H](C(=O)O)CCC(=O)N1C [MICROCYSTIN-LR] (R[Adda][d(γGlu)][NMeDha][dA]L[dAsp(3S-Me)]-OH; lactam N-7) ? DILI positive (test set)

Quick check: Hepatotoxicity of S=C=Nc1cccc2ccccc12 [1-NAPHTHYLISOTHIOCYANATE] ? DILI positive (test set)

Report Hepatotoxicity for `COc1cc2c(c3oc(=O)c4c(c13)CCC4=O)[C@@H]1C=CO[C@@H]1O2` please. DILI positive (test set)

What does the data say about its Hepatotoxicity? Entry: C[N+](C)(C)CC(=O)O.[Cl-] [BETAINE HYDROCHLORIDE] DILI negative (test set)
